Listed next: entries and their corresponding viability, T/C.
system: 282377-053-R-J1-PDC complex spheroid viability; assay: Anticancer human tumor 282377-053-R-J1-PDC patient-derived colon adenocarcinoma cell line growth inhibition [RAS]; conditions: second compound 0.003 µM; first compound 0.003 µM; hits give low values;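 also: spheroids exposed to agents for seven days before readout; luminescence viability as percent of DMSO vehicle control wells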
Give the number; % is assumed, so skip it.

compound	viability, T/C, %
CCc1c2c(nc3ccc(O)cc13)-c1cc3c(c(=O)n1C2)COC(=O)[C@]3(O)CC + CCn1c(-c2cc(N3CCN(C)CC3)cnc2C(C)OC)c2c3cc(ccc31)-c1csc(n1)CC(NC(=O)C1CC1C)C(=O)N1CCCC(N1)C(=O)OCC(C)(C)C2	114
CCc1c2c(nc3ccc(O)cc13)-c1cc3c(c(=O)n1C2)COC(=O)[C@]3(O)CC + CCn1c(-c2cccnc2C(C)OC)c2c3cc(ccc31)N1CCOC(CC(NC(=O)C(C(C)C)N(C)C(=O)C3(F)CCN(C(=O)C#CC(C)(C)N(C)C)CC3)C(=O)N3CCCC(N3)C(=O)OCC(C)(C)C2)C1	125
CC1(C)CCC(Nc2ncc(C(F)(F)F)c(-c3c[nH]c4c(P(C)(C)=O)c(C#N)ccc34)n2)CN1 (centres undefined) + CCn1c(-c2cccnc2C(C)OC)c2c3cc(ccc31)N1CCOC(CC(NC(=O)C(C(C)C)N(C)C(=O)C3(F)CCN(C(=O)C#CC(C)(C)N(C)C)CC3)C(=O)N3CCCC(N3)C(=O)OCC(C)(C)C2)C1	112

Request: Find the recorded viability, T/C belonging to CC1(C)CCC(Nc2ncc(C(F)(F)F)c(-c3c[nH]c4c(P(C)(C)=O)c(C#N)ccc34)n2)CN1 (centres undefined) + CCn1c(-c2cc(N3CCN(C)CC3)cnc2C(C)OC)c2c3cc(ccc31)-c1csc(n1)CC(NC(=O)C1CC1C)C(=O)N1CCCC(N1)C(=O)OCC(C)(C)C2 and report it.
Response: 135

Where do the numbers come from? From PubChem BioAssay AID2060905.
